system: Strep. faecalis MGH-2
Here, each record is paired with measured log10(MIC) data.
MEASURE: log10(MIC) (log10 of the value in µg/mL)

>  <COMPOUND>
C[C@H](N)[C@@H]1CCN(c2nc3c(cc2F)c(=O)c(C(=O)O)cn3C2CC2)C1 [Example 7]

>  <TARGET ENTITY>
Strep. faecalis MGH-2

>  <log10(MIC)>
-1.60

$$$$
>  <COMPOUND>
CCN[C@@H](C)[C@@H]1CCN(c2nc3c(cc2F)c(=O)c(C(=O)O)cn3-c2ccc(F)cc2F)C1 [Example 50]

>  <TARGET ENTITY>
Strep. faecalis MGH-2

>  <log10(MIC)>
-0.70

$$$$
>  <COMPOUND>
CN[C@H](C)[C@H]1CCN(c2c(F)c(N)c3c(=O)c(C(=O)O)cn(C4CC4)c3c2F)C1 [Example 34]

>  <TARGET ENTITY>
Strep. faecalis MGH-2

>  <log10(MIC)>
0.20

$$$$
>  <COMPOUND>
C[C@H](N)[C@@H]1CCN(c2c(F)c(N)c3c(=O)c(C(=O)O)cn(C4CC4)c3c2F)C1 [Example 58]

>  <TARGET ENTITY>
Strep. faecalis MGH-2

>  <log10(MIC)>
-2.52

$$$$
>  <COMPOUND>
CCN[C@@H](C)[C@@H]1CCN(c2c(F)cc3c(=O)c(C(=O)O)cn(C4CC4)c3c2OC)C1 [Example 18]

>  <TARGET ENTITY>
Strep. faecalis MGH-2

>  <log10(MIC)>
-1.60

$$$$
>  <COMPOUND>
C[C@H](N)[C@@H]1CCN(c2cc3c(cc2F)c(=O)c(C(=O)O)cn3C2CC2)C1 [Example 3]

>  <TARGET ENTITY>
Strep. faecalis MGH-2

>  <log10(MIC)>
-1.60

$$$$
>  <COMPOUND>
CCOc1c(N2CC[C@@H]([C@H](C)NC)C2)c(F)cc2c(=O)c(C(=O)O)cn(C3CC3)c12 [Example 57]

>  <TARGET ENTITY>
Strep. faecalis MGH-2

>  <log10(MIC)>
-1.30

$$$$

* * *

Here, each record is paired with measured MIC data.
tested on: Ent. cloacae MA2646
Counter-ions that a name gives are not always drawn.
MEASURE: MIC (µg/mL)

>  <MOLECULE>
Cc1c(F)c(N2CC[C@@H]([C@@H](C)N)C2)cc2c1c(=O)c(C(=O)O)cn2-c1ccc(F)cc1F

>  <UNIT OF MEASURE>
µg/mL

>  <OBSERVED RESULT>
0.2

$$$$
>  <MOLECULE>
CCN[C@@H](C)[C@@H]1CCN(c2c(F)cc3c(=O)c(C(=O)O)cn(C4CC4)c3c2OC)C1

>  <UNIT OF MEASURE>
µg/mL

>  <OBSERVED RESULT>
0.1

$$$$
>  <MOLECULE>
C[C@H](N)[C@H]1CCN(c2cc3c(cc2F)c(=O)c(C(=O)O)cn3C2CC2)C1

>  <UNIT OF MEASURE>
µg/mL

>  <OBSERVED RESULT>
0.2

$$$$
>  <MOLECULE>
CN[C@H](C)[C@H]1CCN(c2c(F)cc3c(=O)c(C(=O)O)cn(C4CC4)c3c2OC)C1

>  <UNIT OF MEASURE>
µg/mL

>  <OBSERVED RESULT>
0.2

$$$$
>  <MOLECULE>
CN[C@H](C)[C@@H]1CCN(c2cc3c(c(C)c2F)c(=O)c(C(=O)O)cn3-c2ccc(F)cc2F)C1

>  <UNIT OF MEASURE>
µg/mL

>  <OBSERVED RESULT>
0.4

$$$$
>  <MOLECULE>
CCN[C@@H](C)[C@@H]1CCN(c2cc3c(c(C)c2F)c(=O)c(C(=O)O)cn3C2CC2)C1

>  <UNIT OF MEASURE>
µg/mL

>  <OBSERVED RESULT>
0.4

$$$$
>  <MOLECULE>
C[C@H]([C@@H]1CCN(c2nc3c(cc2F)c(=O)c(C(=O)O)cn3C2CC2)C1)N(C)C

>  <UNIT OF MEASURE>
µg/mL

>  <OBSERVED RESULT>
0.2

$$$$
>  <MOLECULE>
C[C@@H](N)[C@H]1CCN(c2cc3c(cc2F)c(=O)c(C(=O)O)cn3C2CC2)C1

>  <UNIT OF MEASURE>
µg/mL

>  <OBSERVED RESULT>
0.2

$$$$
>  <MOLECULE>
COc1c(N2CC[C@@H]([C@H](C)N)C2)c(F)cc2c(=O)c(C(=O)O)cn(C3CC3)c12

>  <UNIT OF MEASURE>
µg/mL

>  <OBSERVED RESULT>
0.05

$$$$
>  <MOLECULE>
CCN[C@@H](C)[C@@H]1CCN(c2nc3c(cc2F)c(=O)c(C(=O)O)cn3-c2ccc(F)cc2F)C1

>  <UNIT OF MEASURE>
µg/mL

>  <OBSERVED RESULT>
0.8

$$$$
>  <MOLECULE>
CN[C@@H](C)[C@@H]1CCN(c2c(F)cc3c(=O)c(C(=O)O)cn(C4CC4)c3c2OC)C1

>  <UNIT OF MEASURE>
µg/mL

>  <OBSERVED RESULT>
0.05

$$$$
>  <MOLECULE>
C[C@H](N)[C@H]1CCN(c2nc3c(cc2F)c(=O)c(C(=O)O)cn3C2CC2)C1

>  <UNIT OF MEASURE>
µg/mL

>  <OBSERVED RESULT>
0.05

$$$$
>  <MOLECULE>
CN[C@@H](C)[C@@H]1CCN(c2c(F)c(N)c3c(=O)c(C(=O)O)cn(C4CC4)c3c2OC)C1

>  <UNIT OF MEASURE>
µg/mL

>  <OBSERVED RESULT>
0.2

$$$$
>  <MOLECULE>
C[C@@H]([C@H]1CCN(c2nc3c(cc2F)c(=O)c(C(=O)O)cn3C2CC2)C1)N(C)C

>  <UNIT OF MEASURE>
µg/mL

>  <OBSERVED RESULT>
0.4

$$$$
>  <MOLECULE>
CCN[C@@H](C)[C@@H]1CCN(c2cc3c(c(C)c2F)c(=O)c(C(=O)O)cn3-c2ccc(F)cc2F)C1

>  <UNIT OF MEASURE>
µg/mL

>  <OBSERVED RESULT>
0.4

$$$$
>  <MOLECULE>
CN[C@@H](C)[C@@H]1CCN(c2c(F)c(N)c3c(=O)c(C(=O)O)cn(C4CC4)c3c2F)C1

>  <UNIT OF MEASURE>
µg/mL

>  <OBSERVED RESULT>
0.025

$$$$
>  <MOLECULE>
CN[C@@H](C)[C@@H]1CCN(c2nc3c(cc2F)c(=O)c(C(=O)O)cn3C2CC2)C1

>  <UNIT OF MEASURE>
µg/mL

>  <OBSERVED RESULT>
0.1

$$$$
>  <MOLECULE>
C[C@@H](N)[C@@H]1CCN(c2nc3c(cc2F)c(=O)c(C(=O)O)cn3C2CC2)C1

>  <UNIT OF MEASURE>
µg/mL

>  <OBSERVED RESULT>
0.05

$$$$
>  <MOLECULE>
C[C@H](N)[C@@H]1CCN(c2c(F)c(N)c3c(=O)c(C(=O)O)cn(C4CC4)c3c2F)C1

>  <UNIT OF MEASURE>
µg/mL

>  <OBSERVED RESULT>
0.013

$$$$
>  <MOLECULE>
CCN[C@@H](C)[C@H]1CCN(c2c(F)cc3c(=O)c(C(=O)O)cn(C4CC4)c3c2OC)C1

>  <UNIT OF MEASURE>
µg/mL

>  <OBSERVED RESULT>
0.8

$$$$
>  <MOLECULE>
C[C@H](N)[C@@H]1CCN(c2nc3c(cc2F)c(=O)c(C(=O)O)cn3C2CC2)C1 [Example 7]

>  <UNIT OF MEASURE>
µg/mL

>  <OBSERVED RESULT>
0.025

$$$$
>  <MOLECULE>
CCN[C@@H](C)[C@H]1CCN(c2nc3c(cc2F)c(=O)c(C(=O)O)cn3C2CC2)C1

>  <UNIT OF MEASURE>
µg/mL

>  <OBSERVED RESULT>
0.2

$$$$
>  <MOLECULE>
CCN[C@H](C)[C@H]1CCN(c2nc3c(cc2F)c(=O)c(C(=O)O)cn3C2CC2)C1

>  <UNIT OF MEASURE>
µg/mL

>  <OBSERVED RESULT>
0.1

$$$$
>  <MOLECULE>
CN[C@@H](C)[C@@H]1CCN(c2c(F)c(C)c3c(=O)c(C(=O)O)cn(C4CC4)c3c2OC)C1

>  <UNIT OF MEASURE>
µg/mL

>  <OBSERVED RESULT>
0.1

$$$$
>  <MOLECULE>
CN[C@@H](C)[C@@H]1CCN(c2cc3c(c(C)c2F)c(=O)c(C(=O)O)cn3C2CC2)C1 [Example 67, monohydrochloride]

>  <UNIT OF MEASURE>
µg/mL

>  <OBSERVED RESULT>
0.4

$$$$
>  <MOLECULE>
CCN[C@H](C)[C@@H]1CCN(c2nc3c(cc2F)c(=O)c(C(=O)O)cn3-c2ccc(F)cc2F)C1

>  <UNIT OF MEASURE>
µg/mL

>  <OBSERVED RESULT>
0.8

$$$$
>  <MOLECULE>
C[C@@H](N)[C@@H]1CCN(c2cc3c(cc2F)c(=O)c(C(=O)O)cn3C2CC2)C1

>  <UNIT OF MEASURE>
µg/mL

>  <OBSERVED RESULT>
0.2

$$$$
>  <MOLECULE>
C[C@H](N)[C@@H]1CCN(c2c(F)cc3c(=O)c(C(=O)O)cn(C4CC4)c3c2C(F)(F)F)C1

>  <UNIT OF MEASURE>
µg/mL

>  <OBSERVED RESULT>
0.2

$$$$
>  <MOLECULE>
COc1c(N2CC[C@@H]([C@@H](C)N)C2)c(F)cc2c(=O)c(C(=O)O)cn(C3CC3)c12

>  <UNIT OF MEASURE>
µg/mL

>  <OBSERVED RESULT>
0.05

$$$$
>  <MOLECULE>
C[C@@H]([C@@H]1CCN(c2cc3c(cc2F)c(=O)c(C(=O)O)cn3C2CC2)C1)N(C)C

>  <UNIT OF MEASURE>
µg/mL

>  <OBSERVED RESULT>
0.2

$$$$
